- ASSAY_PROTOCOL: doxorubicin toxicity protection in MRP-1 cells – H69AR cells, CellTiter-Glo, duplicate, MRP-1 activator project, pilot screen (AID 807);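 further: compound pretreatment 18-22 h then 72 h combined with doxorubicin; 0% = doxorubicin alone and 100% = vehicle without doxorubicin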
- EXPERIMENTAL_SETUP: H69AR viability with doxorubicin, CellTiter-Glo luminescence; at 10 µM; hits give high values
Can you tell me viability increase for the items I'm about to list?
One number for each entry, in %.

Known results for molecules:
O=C1CC(c2ccc(Cl)c(Cl)c2)CC(O)=C1C=NCCN1CCNCC1 (centres undefined) | -1.07
O=C(c1ccc(CNc2c(N3CCCC3)c(=O)c2=O)cc1)N1CCc2ccccc2C1 | -0.78
COc1ccc(-n2ncc3c(N4CCN(c5cccc(C)c5C)CC4)ncnc32)cc1 | -7.5
CCCC(=O)NCCc1nc2ccccc2n1CCC | 0.5
Clc1ss/c(=N\c2ccccn2)c1Cl | -5.42

Count: 7. Required value per item: viability increase.
1. Oc1c(C(c2ccccc2)N2CCc3ccccc3C2)sc2ncnn12 (centres undefined)
2. Cc1cc(C(=O)NCc2cccs2)n(-c2ccccc2)n1
3. Cc1ccc(C)n1-c1ccc(N2CCOCC2)cc1
4. Cc1ccc2[nH]c(=O)c3cc(C(=O)N4CCN(C(=O)c5ccco5)CC4)sc3c2c1
5. CC1CCc2nn(CC(=O)NCCN3CCOCC3)cc2C1 (centres undefined)
6. CCOc1ccc(Cc2nnc(SCC(=O)c3ccc(OC)cc3)o2)cc1
7. COc1ccc(N2Cc3ccccc3C2)cc1Cl

1: 3.99; 2: 0.91; 3: -7.18; 4: -3.84; 5: 0.93; 6: 0.28; 7: 0.04

Count: 5. Required value per item: viability increase.
1. COc1ccc(OC)c(C(C)NC=O)c1 (centres undefined)
2. CCn1c2ccccc2c2cc(Nc3cc(C)nc4ncnn34)ccc21
3. COc1ccc(C2CC(c3ccc(OC)cc3)n3nc(N)nc3N2)cc1 (centres undefined)
4. COc1ccc(-c2nnc(SCC(=O)NC(C)c3ccccc3)o2)cc1 (centres undefined)
5. CCc1ccc(C2CC(c3cccc(Cl)c3)n3nc(N)nc3N2)cc1 (centres undefined)

1: -0.64; 2: -7.76; 3: 0.09; 4: -3.41; 5: -3.92

Count: 6. Required value per item: viability increase.
1. COc1ccc(S(=O)(=O)N(C)C2CCN(C)CC2)cc1
2. Fc1ccc(-c2nnc3ccc(N4CCCC4)nn23)cc1
3. Cc1nc2ccc(S(=O)(=O)NC(C(=O)Nc3nccs3)C(C)C)cc2s1 (centres undefined)
4. COc1cccc(C2C(C(N)=O)=C(C)Nc3nc(-c4ccccc4Cl)nn32)c1 (centres undefined)
5. O=c1cc(-c2ccco2)oc2ccc(Cl)cc12
6. Cc1noc(/C=C/N(C)C)c1S(=O)(=O)N1CCCC(C(=O)N2CCc3ccccc32)C1 (centres undefined)

1: -3.82; 2: -5.62; 3: -1.85; 4: -2.66; 5: -2.08; 6: -0.98

Given Cc1ccc(CSc2nc3c(c(=O)[nH]2)CCC3)cc1 , state its recorded viability increase. -0.74

* * *

- ASSAY_PROTOCOL: S. cerevisiae growth inhibition in restrictive medium, OD615, pilot screen, restrictive growth control, yeast lifespan reduction project (AID 706);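 further: modified DeaD lifespan yeast strain shifted to restrictive glucose medium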
- EXPERIMENTAL_SETUP: OD615, 48 h, at 10 µM, hits give high values
Can you tell me growth inhibition for the items I'm about to list?
Answers are plain numbers, in %.

Known results for compounds:
CCOC(=O)C1CCN(S(=O)(=O)C(F)(F)c2nc3ccccc3s2)CC1 | -6.5
O=C(c1ccc(CS(=O)(=O)c2ccc(Br)cc2)o1)N1CCN(C2CCCCC2)CC1 | 9.43
Cc1nnc(Sc2nc3c(c(=O)[nH]c(=O)n3C)n2Cc2ccccc2Cl)s1 | -9.02
O=C(NCCSc1c[nH]c2ccccc12)c1ccco1 | -2.81
N#Cc1c2n(c(=O)[nH]c1=O)CCCCC2 | 1.1

Count: 3. Required value per item: growth inhibition.
1. CN1CCN(c2cc(=O)n(-c3ccc(Cl)cc3)c(=O)[nH]2)CC1
2. Cc1cn2c(-c3ccc(Cl)cc3)nnc2s1
3. O=C(Cn1ncc2c1-c1ccccc1OC2)Nc1ccc(Cl)cn1

1. -1.23
2. 16.2
3. 0.96

Count: 6. Required value per item: growth inhibition.
1. CCN1CCN(C(=O)C2CC(c3ccc(F)cc3)=NO2)CC1 (stereo not drawn)
2. O=C(c1cccs1)N(C(=O)c1cccs1)c1ccccn1
3. COc1ccc(-c2nc(CS(=O)CC(=O)NCC3CCCO3)c(C)o2)cc1 (stereo not drawn)
4. COc1ccc(CNC(=O)Cn2cc3c(n2)CCCCC3)cc1
5. CCCCCn1c(CN2CCN(C(=O)c3ccco3)CC2)nc2c1c(=O)n(C)c(=O)n2C
6. O=C(c1cnc2n(c1=O)CCS2)N(C1CCCCC1)C1CCCCC1

3.61
-6.32
15.5
-0.895
-8.78
-18.9
